Test system: Staphylococcus aureus ATCC 29213 MSSA (Methicillin sensitive)
Test: In-vitro antibacterial activity, broth microdilution MIC
Format: cell-based
Conditions: Table 7, S. aureus MSSA, broth microdilution, 35±2° C., 16-20 h, read-out: MIC ATCC 29213
PARAMETER: MIC

>>> df
                                   compound  parameter  observed_value
0  COC(=O)N1C[C@@H]2C[C@]2(c2ccc(N3C[C@H](CNC(C)=O)OC3=O)cc2)C1        MIC         1 µg/mL
1  COC(=O)N1C[C@H]2C[C@@]2(c2ccc(N3C[C@H](CNC(C)=O)OC3=O)cc2)C1        MIC         2 µg/mL
2  CC(=O)NC[C@H]1CN(c2ccc(N3CCOCC3)c(F)c2)C(=O)O1 [Linezolid, reference compound]        MIC         2 µg/mL

Challenge: Identify measured MIC associated with COC(=O)N1CC2CC2(c2ccc(N3C[C@H](CNC(C)=O)OC3=O)cc2F)C1 (stereo partly shown)
Response given: 1 µg/mL

====

Test system: Staphylococcus aureus ATCC 29213 MSSA (Methicillin sensitive)
Assay: In-vitro antibacterial activity, broth microdilution MIC
Assay type: cell-based
Conditions: Table 7, S. aureus MSSA, broth microdilution, 35±2° C., 16-20 h, read-out: MIC ATCC 29213
Measured MIC of individual entries
Hi! Could you send only the number? It should be in µg/mL, unit omitted.

Some solved cases for reference:
>>> print(df.to_string())
                                   compound  observed_value
0  COC(=O)N1CC2CC2(c2ccc(N3C[C@H](Cn4ccnn4)OC3=O)cc2)C1 (stereo partly shown)               1
1  CC(=O)NC[C@H]1CN(c2ccc(C34CC3CN(c3ccccn3)C4)cc2)C(=O)O1 (stereo partly shown)               1
2  CC(=O)NC[C@H]1CN(c2ccc(C34CC3CN(C(=O)CCc3ccccc3)C4)cc2)C(=O)O1 (stereo partly shown)               1

Challenge: Read the entry CC(=O)NC[C@H]1CN(c2ccc(C34CC3CN(C(=O)C(F)(F)F)C4)cc2)C(=O)O1 (stereo partly shown) and write its reported MIC.
Response given: 2

Challenge: Quote MIC reported for CC(=O)N1CC2CC2(c2ccc(N3C[C@H](CO)OC3=O)cc2)C1 (stereo partly shown) [drawing 484] please.
Response given: 4

Challenge: Return MIC for the following compound: CC(=O)NC[C@H]1CN(c2ccc(C34CC3CN(C(=O)C(=O)c3ccco3)C4)cc2)C(=O)O1 (stereo partly shown)
Response given: 1

Challenge: Name the recorded MIC of the item CC(=O)NC[C@H]1CN(c2ccc(C34CC3CN(c3nccs3)C4)cc2)C(=O)O1 (stereo partly shown) in your answer.
Response given: 0.5

Challenge: Consider the compound CC(=O)NC[C@H]1CN(c2ccc(C34CC3CN(C(C)=O)C4)c(F)c2)C(=O)O1 (stereo partly shown) . State its measured MIC.
Response given: 1

====

Test system: Staphylococcus aureus ATCC 29213 MSSA (Methicillin sensitive)
Assay: In-vitro antibacterial activity, broth microdilution MIC
Format: cell-based
Conditions: Table 9, S. aureus MSSA, read-out: Antimicrobial activity (in vitro MIC) ATCC 29213
Measured MIC, listed per entry.

For orientation, consider the following solved cases.
>>> print(df.to_string())
                                   compound  observed_value
0  CC(=O)N1CC2CC2(c2ccc(N3C[C@H](CO)OC3=O)cc2)C1 (stereo partly shown) [drawing 534]         4 µg/mL
1  CCN1CC2C(COC)C2(c2ccc(N3CCCC3)cc2)C1 (stereo not shown) [drawing 538]      > 32 µg/mL
2  CCN1CC2CC2(c2ccc(N3CCOCC3)cc2)C1 (stereo not shown)      > 32 µg/mL
3  CC(=O)NC[C@H]1CN(c2ccc(C34CC3CN(C(C)=O)C4)cc2)C(=O)O1 (stereo partly shown) [drawing 533]         2 µg/mL

Challenge: Report measured MIC; entry is CCN1CC2CC2(c2ccc(N3CCCC3)cc2)C1 (stereo not shown) [drawing 535]
Response given: > 32 µg/mL

Challenge: Give the reported MIC for this compound. c1cc(C23CNCC2C3)ccc1N1CCOCC1 (stereo not shown) [drawing 537]
Response given: > 32 µg/mL

Challenge: Return MIC for the following compound: CCN1CC2CC2(c2ccc(N3CCOC3=O)cc2)C1.Cl (stereo not shown)
Response given: > 32 µg/mL
